Measured inhibition at 16 µg/mL, listed per entry for reference.
System: CNE cell line
Test: solid tumor cell growth inhibition, MTT
Format: cell-based
Details: Homo sapiens, 16 μg/mL compound, 72 h, read-out: IR (cell proliferation inhibition rate)
Numeric only. Scale: %

Input line: Name the reported inhibition at 16 µg/mL value associated with the compound CCC(C)CNC(=O)C1C[C@@]2(C)C(CC[C@]3(C)C2CC=C2C4CC(C)(C)CC[C@]4(C(=O)OC)CC[C@]23C)C(C)(C)C1=O (stereo partly drawn)
Output line: 15.1

Input line: Name the reported inhibition at 16 µg/mL value associated with the compound COC(=O)[C@]12CCC(C)(C)CC1C1=CCC3[C@@]4(C)CC(C(=O)NCCN5CCCC5)C(=O)C(C)(C)C4CC[C@@]3(C)[C@]1(C)CC2 (stereo partly drawn)
Output line: 98.6

Input line: Name the reported inhibition at 16 µg/mL value associated with the compound CCN(CC)CCCNC(=O)C1C[C@]2(C)[C@H]3CC=C4[C@@H]5CC(C)(C)CC[C@]5(C(=O)OC)CC[C@@]4(C)[C@]3(C)CC[C@H]2C(C)(C)C1=O (stereo partly drawn)
Output line: 99
